Recorded binding signal, one value per entry.
Molecular target: T1, UNK ZnF1-6 (called full-length) (human, UniProt Q9C0B0 30-357)
T1 sequence: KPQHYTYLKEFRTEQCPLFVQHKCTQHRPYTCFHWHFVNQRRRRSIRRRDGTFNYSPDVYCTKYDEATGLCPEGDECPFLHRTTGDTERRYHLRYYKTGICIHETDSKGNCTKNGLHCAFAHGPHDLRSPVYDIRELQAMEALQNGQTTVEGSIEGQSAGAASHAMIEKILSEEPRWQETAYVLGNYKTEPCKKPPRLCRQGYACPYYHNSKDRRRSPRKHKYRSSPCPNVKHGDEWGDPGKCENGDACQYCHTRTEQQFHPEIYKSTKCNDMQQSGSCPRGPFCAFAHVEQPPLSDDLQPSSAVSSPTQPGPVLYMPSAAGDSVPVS
Test: nsRBNS (natural sequence RNA bind-n-seq); RBNS binding buffer (assumed for nsRBNS): 25 mM Tris pH 7.5, 150 mM KCl, 3 mM MgCl2, 0.01% Triton X-100, 500 ug/ml BSA, 20 U/ml SUPERase-In, 4 C; UNK is unkempt and MSI1 is Musashi-1; names of the RNAs are library labels; protein concentration not given here; high values mean tight binding
Whole data set: some 5,800 sequences, median “enrichment r” near 0.68, cut for the highest 2% near 11. The list comes from a sample in which the highest values are over-represented; it also holds close analogues and randomly drawn sequences.
Write the value in enrichment R as a bare number.

chr5:43486917:43487111:-|CDS|ENSG00000172244|control|control|control (ssRNA) RNA: GGGAGUUCUACAGUCCGACGAUCUUAUAAACCAGGAUCUUCAGAAACCUUGCUAGGAGAAGUUAAUGAAAAUAGAGUAUCAAUAGCAUUGAAAAAAACCUCUGAAAUCCUUCACGAUAUUGACUGUCUUCUAUCAAACUCUAACAACAGAGGAUUGAGCAUCA : 0.69

Let's switch to this binder now.
# input Given chr10:30820206:30820444:-|three_prime_utr|ENSG00000183621|control|control|control (ssRNA) RNA: GGGAGUUCUACAGUCCGACGAUCCUUAUCUAAUCUCCAAAUGAAGAAUGGGCCCAUCUGACAUAUCCUAUGAGCACAAAGCUUAGGGGACUCUUCACCGAAACCUAGACAAAUAUUUGAAUGCAUUUUUUUUUUUUUUUUUUGCAACAGAGGAUUGAGCAUCA , state its recorded binding signal.
# output 27.7

Taken from paper PMC12136788.
